system: BMSC (primary human bone marrow mesenchymal stromal cells); assay: absolute EC50 for viability; higher = less sensitive
observation_type: absolute EC50 for viability

Exercise: Sample CC(C)(C)c1cnc(CSc2cnc(NC(=O)C3CCNCC3)s2)o1 [SNS-032] — what was its absolute EC50 for viability?
Key: > 10000 nM

Exercise: Try this compound next: Cc1nc(Nc2ncc(C(=O)Nc3c(C)cccc3Cl)s2)cc(N2CCN(CCO)CC2)n1 [Dasatinib]
Key: 132 nM

Exercise: One more compound: Nc1nc(NC2CC2)cc(-c2cccc(Cl)c2Cl)n1 [TH588]
Key: > 25000 nM

Exercise: What about CC(=O)OC[C@H]1O[C@@H]([S-])[C@H](OC(C)=O)[C@@H](OC(C)=O)[C@@H]1OC(C)=O.CCP(CC)CC.[Au+] [Auranofin] ?
Key: 1390 nM

Exercise: Similarly, CN[C@@H](C)C(=O)N[C@H](C(=O)N1CCC[C@H]1c1nc(C(=O)c2ccc(F)cc2)cs1)C1CCCCC1 [NVP-LCL161] ?
Key: > 25000 nM

Exercise: Let us now turn to COc1ccc(S(=O)(=O)Nc2cccnc2Nc2ccc(O)cc2)cc1 [ABT-751]
Key: > 10000 nM

Exercise: And for Cc1cccc(-c2[nH]c(CNc3ccccc3F)nc2-c2ccc3ncnn3c2)n1 [TEW-7197] ?
Key: > 2500 nM

Exercise: And O=C(O)CNC(=O)c1c(O)c2ccccc2n(Cc2ccccc2)c1=O [IOX-2] ?
Key: > 50000 nM

Exercise: Same lookup for CCn1cc(-c2ccnc3[nH]c(-c4cccc(CN(C)C)c4)cc23)c(-c2ccc(NC(=O)N(C)C)cc2)n1 , please.
Key: > 1000 nM

Exercise: Another compound to check: COc1nc(N)nc2c1ncn2[C@@H]1O[C@H](CO)[C@@H](O)[C@@H]1O [Nelarabine]
Key: > 10000 nM

Exercise: Input COc1cc2c(Oc3ccc4[nH]c(C)cc4c3F)ncnc2cc1OCCCN1CCCC1 [Cediranib]
Key: > 1000 nM

Exercise: Try this compound next: CCOCc1nc2c(N)nc3ccccc3c2n1CC(C)(C)O [Resiquimod]
Key: > 10000 nM

Exercise: Same thing, different compound: CO[C@H]1C(=O)[C@]2(C)[C@@H](OC)C[C@H]3OC[C@@]3(OC(C)=O)[C@H]2[C@H](OC(=O)c2ccccc2)[C@]2(O)C[C@H](OC(=O)[C@H](O)[C@@H](NC(=O)OC(C)(C)C)c3ccccc3)C(C)=C1C2(C)C [Cabazitaxel]
Key: > 1000 nM

Exercise: Try this compound next: CC(=O)c1cnc2ccc(-c3cc(Cl)c(O)c(Cl)c3)nc2c1N[C@H]1CC[C@H](CN(C)C)CC1 [OTS167]
Key: > 1000 nM

Exercise: Follow-up entry: CC(C)(C)Cn1c(N)nc2ccc(-c3[nH]c(C(C)(C)C)nc3-c3ccc(F)cc3)nc21 [Ralimetinib]
Key: > 10000 nM

Exercise: Now give it for Cn1cc(-c2cnn3c(N)c(Br)c([C@@H]4CCCNC4)nc23)cn1 [MK-8776] too.
Key: > 2500 nM

* * *

Can you tell me absolute EC50 for viability for the items I'm about to list?
test system: BMSC (primary human bone marrow mesenchymal stromal cells); assay: absolute EC50 for viability; higher = less sensitive

Exercise: For the record CNS(=O)(=O)Nc1nccc(Cc2c(C)c3ccc(Oc4ncccn4)cc3oc2=O)c1F , what value of absolute EC50 for viability is listed for BMSC (primary human bone marrow mesenchymal stromal cells)?
Key: > 1 µM

Exercise: Try N[C@@H]1CCCN(c2c(/C=C3\SC(=O)NC3=O)cccc2-c2ccccc2)C1 next.
Key: > 10 µM

Exercise: What about this compound? CO[C@@H](C(=O)N1Cc2[nH]nc(NC(=O)c3ccc(N4CCN(C)CC4)cc3)c2C1)c1ccccc1
Key: > 10 µM

Exercise: Try this compound next: Cc1cc2c(C(=O)NC[C@H](C)c3ccccc3)c(O)c(O)cc2c(O)c1-c1c(C)cc2c(C(=O)NC[C@H](C)c3ccccc3)c(O)c(O)cc2c1O
Key: 7.71 µM

Exercise: // query: COc1cc2c(NC3CCN(C(C)C)CC3)nc(N3CCC(F)(F)CC3)nc2cc1OCCCN1CCCC1
Key: 3.38 µM

Exercise: For CCOc1ccccc1-n1c(C(C)N2CCN(C(=O)COc3ccc(Cl)cc3)CC2)nc2ccccc2c1=O (centres undefined) then?
Key: > 10 µM

Exercise: Lookup O=C1NC(=O)[C@@H](c2cn3c4c(cccc24)CCC3)[C@@H]1c1c[nH]c2ccccc12 [Tivantinib]
Key: > 1 µM

Exercise: Now consider COc1cc2ncnc(Oc3cccc(NC(=O)Nc4cc(C(C)(C)C(F)(F)F)on4)c3)c2cc1OC .
Key: > 10 µM

Exercise: Same for CN1CCN(c2ccc3nc(-c4c(N)c5c(F)cccc5[nH]c4=O)[nH]c3c2)CC1
Key: > 10 µM

Exercise: Also need CC1=C2C[C@H]3[C@@H](CC[C@@H]4C[C@H](NS(C)(=O)=O)CC[C@@]43C)[C@@H]2CC[C@@]2(C1)O[C@@H]1C[C@H](C)CN[C@H]1[C@H]2C , thanks.
Key: > 10 µM

Exercise: # repeat for Cc1cc(C)c(CNC(=O)c2cc(-c3ccc(CN4CCOCC4)cc3)cc3c2cnn3C2CCCC2)c(=O)[nH]1
Key: 9.93 µM

Exercise: Another compound to check: CC#CC(=O)N1CCC[C@H]1c1nc(-c2ccc(C(=O)Nc3ccccn3)cc2)c2c(N)nccn12
Key: > 1 µM

Exercise: Also CC(C)(C)c1cc(NC(=O)Nc2ccc(-c3cn4c(n3)sc3cc(OCCN5CCOCC5)ccc34)cc2)no1 , if possible.
Key: > 1 µM

Exercise: Now the same for CC[C@@H]1C(=O)N(C)c2cnc(Nc3ccc(C(=O)N[C@H]4CC[C@H](N5CCN(CC6CC6)CC5)CC4)cc3OC)nc2N1C(C)C
Key: > 1 µM

Exercise: Can you check COc1cccc2c1c(O)c(C(=O)N(C)c1ccc(C(F)(F)F)cc1)c(=O)n2C next?
Key: > 10 µM

Exercise: Would you kindly repeat that for CO[C@@H]1[C@H](N(C)C(=O)c2ccccc2)C[C@H]2O[C@]1(C)n1c3ccccc3c3c4c(c5c6ccccc6n2c5c31)C(=O)NC4 ?
Key: 1.65 µM

Exercise: Also CC[C@]1(O)C[C@H]2CN(CCc3c([nH]c4ccccc34)[C@@](C(=O)OC)(c3cc4c(cc3OC)N(C=O)[C@H]3[C@@](O)(C(=O)OC)[C@H](OC(C)=O)[C@]5(CC)C=CCN6CC[C@]43[C@@H]65)C2)C1 , if possible.
Key: > 1 µM

Exercise: Next record, please: CNC(=O)c1ccc(N2C(=S)N(c3ccc(C#N)c(C(F)(F)F)c3)C(=O)C2(C)C)cc1F [Enzalutamide]
Key: > 10 µM

Exercise: Thanks! And CC(C)C(=O)Nc1ccc([N+](=O)[O-])c(C(F)(F)F)c1 [Flutamide] ?
Key: > 10 µM

Exercise: Ok, now CC(C)(C)c1nc(-c2cccc(NS(=O)(=O)c3c(F)cccc3F)c2F)c(-c2ccnc(N)n2)s1
Key: > 2.5 µM

Exercise: Same question for CC[C@H](C)C(=O)O[C@H]1C[C@H](O)C=C2C=C[C@H](C)[C@H](CC[C@@H](O)C[C@@H](O)CC(=O)O)[C@H]21 please.
Key: > 10 µM

Exercise: Likewise for Cc1nc(=O)c2cc(CN(C)c3ccc(C(=O)N[C@@H](CCC(=O)O)C(=O)O)s3)ccc2[nH]1 ?
Key: > 1 µM

Exercise: Another compound to look at: CN1CC[C@H](c2c(O)cc(O)c3c(=O)cc(-c4ccccc4Cl)oc23)[C@H](O)C1
Key: 0.739 µM

Exercise: COc1cc(OC2CCN(C)CC2)ccc1Nc1ncc2c(n1)n(C1CCCC1)c(=O)n2C , same question.
Key: > 10 µM

Exercise: Same for CC[C@@]1(O)C(=O)OCc2c1cc1n(c2=O)Cc2cc3c(CN(C)C)c(O)ccc3nc2-1
Key: > 10 µM

Exercise: Can you check COc1cc(Nc2c(C#N)cnc3cc(OCCCN4CCN(C)CC4)c(OC)cc23)c(Cl)cc1Cl next?
Key: 1.69 µM

Exercise: Moving on to CNC(=O)c1cccc2cc(Oc3ccnc4cc(OCC5(N)CC5)c(OC)cc34)ccc12
Key: > 10 µM

Exercise: For FC(F)c1nc2ccccc2n1-c1nc(N2CCOCC2)nc(N2CCOCC2)n1 then?
Key: > 10 µM

Exercise: Same thing, different compound: Nc1nc(OCc2cc(Br)cs2)c2[nH]cnc2n1
Key: > 10 µM

Cited source: the supplement of paper PMC9103864
